TEST PROTOCOL: Partition coefficient (logP)
Format: physicochemical
CONDITION SUMMARY: octanol/water; read-out: logP
EXPERIMENTAL ENDPOINT: logP

CCOC(=O)/C=C(C)/C=C/CC(C)CCC(OC)C(C)(C)OC (centres undefined)    4.34
CCOC(=O)/C=C(C)/C=C/CC(C)CCCC(C)(C)SC (centres undefined)    6.36
CC(/C=C/CC(C)CCCC(C)C)=C\C(=O)NC(C)C (centres undefined)    5.65
CCCOC(=O)/C=C(C)/C=C/CC(C)CCCC(C)(C)OC (centres undefined)    6.08
C/C=C/COC(=O)/C=C(C)/C=C/CC(C)CCCC(C)(C)OC (centres undefined)    6.07
COC(CCC(C)C/C=C/C(C)=C/C(=O)OC(C)C)C(C)(C)OC (centres undefined)    4.75
CC(/C=C/CC(C)CCCC(C)(C)Cl)=C\C(=O)OC(C)C (centres undefined)    6.85
CC(/C=C/CC(C)CCCC(C)(C)OC=O)=C\C(=O)OC(C)C (centres undefined)    5.4
CC#CCOC(=O)/C=C(C)/C=C/CC(C)CCCC(C)C (centres undefined)    6.4
CSC(C)(C)CCCC(C)C/C=C/C(C)=C/C(=O)OC(C)C (centres undefined)    6.77
C=C(C)CCCC(C)C/C=C/C(C)=C/C(=O)OC(C)C (centres undefined)    6.6
CCOC(C)(C)CCCC(C)C/C=C/C(C)=C/C(=O)OC(C)C (centres undefined)    6.49
CCNC(=O)OC(C)(C)CCCC(C)C/C=C/C(C)=C/C(=O)OC(C)C (centres undefined)    6.06
COC(C)(C)CCCC(C)C/C=C/C(C)=C/C(=O)CC(C)C (centres undefined)    6.02

* * *

TEST PROTOCOL: Partition coefficient (logP)
Format: physicochemical
CONDITION SUMMARY: octanol/water; read-out: logP
EXPERIMENTAL ENDPOINT: logP

[P] CCN(CC)C(=O)/C=C(C)/C=C/CC(C)CCCC(C)C (configuration not stated)
[Q] COC(C)(C)CCCC(C)C/C=C/C(C)=C/C(N)=O (configuration not stated)
In the pair P and Q , the larger recorded logP belongs to which? # respond with the chosen item's label
P

[1] CC(/C=C/CC(C)CCCC(C)(C)OC(C)C)=C\C(=O)OC(C)C (configuration not stated)
[2] CCOC(=O)/C=C(C)/C=C/CC(C)CCCC(C)(C)O (configuration not stated)
Field: lower recorded logP (choose 1 or 2 ) Identify your pick by its label.
2

* * *

TEST PROTOCOL: Partition coefficient (logP)
Assay type: physicochemical
CONDITION SUMMARY: octanol/water; read-out: logP
EXPERIMENTAL ENDPOINT: logP

CCN(CC)C(=O)/C=C(C)/C=C/CC(C)CCC1OC1(C)C (stereo not drawn)    4.04
CCC(=O)/C=C(C)/C=C/CC(C)CCCC(C)(C)O (stereo not drawn)    4.18
CCNC(=O)/C=C(C)/C=C/CC(C)CCCC(C)(C)C (stereo not drawn)    5.65
CC(/C=C/CC(C)CCCC(C)C)=C\C(=O)O (stereo not drawn)    5.95
CCOC(=O)/C=C(C)/C=C/CC(C)CCCC(C)CC (stereo not drawn)    7.81
CCC(C)OC(=O)/C=C(C)/C=C/CC(C)CCCC(C)(C)OC (stereo not drawn)    6.49
CCOC(=O)/C=C(C)/C=C/CC(C)CCCC(C)(C)OC(C)=O (stereo not drawn)    5.57
COC(C)(C)CCCC(C)C/C=C/C(C)=C/C(=O)OCCC(C)C (stereo not drawn)    7.03

[I] CC(/C=C/CC(C)CCCC(C)C)=C\C(=O)N(C)C (stereo not drawn)
[II] COC(C)(C)CCCC(C)C/C=C/C(C)=C/C(=O)SC(C)C (stereo not drawn)
[III] CCNC(=O)/C=C(C)/C=C/CC(C)CCCC(C)(C)O (stereo not drawn)
Provide the items ranked by increasing logP. Please, when replying, give the labels in the order that was requested.
III, I, II
(III: 3.15, I: 4.94, II: 7.19)

[a] CCC(=O)/C=C(C)/C=C/CC(C)CCCC(C)C (stereo in doubt; 83)
[b] COC(C)(C)C(O)CCC(C)C/C=C/C(C)=C/C(=O)OC(C)C (stereo not drawn)
Looking only at measured logP, which entry is lower, a or b ? Label of pick, please.
b
(b: 3.86, a: 6.27)

* * *

TEST PROTOCOL: Partition coefficient (logP)
Assay type: physicochemical
CONDITION SUMMARY: octanol/water; read-out: logP
EXPERIMENTAL ENDPOINT: logP

C=CCNC(=O)/C=C(C)/C=C/CC(C)CCCC(C)C (configuration not stated)    5.23
C#CCSC(=O)/C=C(C)/C=C/CC(C)CCCC(C)C (configuration not stated)    5.07
CC(/C=C/CC(C)CCCC(C)(C)C)=C\C(=O)OC(C)C (configuration not stated)    7.56
CC(/C=C/CC(C)CCCC(C)C)=C\C(=O)Oc1ccccc1 (configuration not stated)    7.67
CC(/C=C/CC(C)CCCC(C)C)=C\C(=O)c1ccccc1 (configuration not stated)    7.26

[I] CCCC(=O)/C=C(C)/C=C/CC(C)CCCC(C)(C)OC (configuration not stated)
[II] CCSC(=O)/C=C(C)/C=C/CC(C)CCCC(C)(C)C (configuration not stated)
Would you mind telling me which has the lower recorded logP between I and II ? Selection: enter the item's label.
I

* * *

TEST PROTOCOL: Partition coefficient (logP)
Assay type: physicochemical
CONDITION SUMMARY: octanol/water
EXPERIMENTAL ENDPOINT: logP

[1] CCC(=O)/C=C(C)/C=C/CC(C)CCCC(C)C (stereo in doubt; 101)
[2] COC(C)(C)CCCC(C)C/C=C/C(C)=C/C(=O)NC1CC1 (configuration not stated)
Hey, between 1 and 2 which has a smaller measured logP? I would appreciate it if you answered with the label of your choice.
2
(2: 4.04, 1: 6.68)

* * *

TEST PROTOCOL: Partition coefficient (logP)
Format: physicochemical
CONDITION SUMMARY: octanol/water; read-out: logP
EXPERIMENTAL ENDPOINT: logP

CCSC(=O)/C=C(C)/C=C/CC(C)CCCC(C)C (centres undefined)    7.98
CC(=O)OC(C)(C)CCCC(C)C/C=C/C(C)=C/C(=O)OC(C)C (centres undefined)    5.98
CC(/C=C/CC(C)CCCC(C)C)=C\C(=O)CC(C)C (centres undefined)    7.22
CCC(C)C(=O)/C=C(C)/C=C/CC(C)CCCC(C)(C)OC (centres undefined)    6.02

* * *

TEST PROTOCOL: Partition coefficient (logP)
Assay type: physicochemical
CONDITION SUMMARY: octanol/water; read-out: logP
EXPERIMENTAL ENDPOINT: logP

CCCCOC(=O)/C=C(C)/C=C/CC(C)CCCC(C)(C)OC (stereo not drawn)    6.62
CSC(=O)/C=C(C)/C=C/CC(C)CCCC(C)C (stereo not drawn)    7.44
CC(/C=C/CC(C)CCCC(C)C)=C\C(=O)OCC(C)C (stereo not drawn)    7.69
COC(=O)/C=C(C)/C=C/CC(C)CCCC(C)(C)OC (stereo not drawn)    5
COC(C)(C)CCCC(C)C/C=C/C(C)=C/C(=O)OC1CCCC1 (stereo not drawn)    7.01
C=CC(C)OC(=O)/C=C(C)/C=C/CC(C)CCCC(C)(C)OC (stereo not drawn)    5.94
COC(C)(C)CCCC(C)C/C=C/C(C)=C/C(=O)SC (stereo not drawn)    6.24
CC(C)=CCCC(C)C/C=C/C(C)=C/C(=O)OC(C)C (stereo not drawn)    6.6

* * *

TEST PROTOCOL: Partition coefficient (logP)
Format: physicochemical
CONDITION SUMMARY: octanol/water; read-out: logP
EXPERIMENTAL ENDPOINT: logP

As a guide, the following entries are already answered.
CCN(CC)C(=O)/C=C(C)/C=C/CC(C)CCC=C(C)C (stereo not given)    5.47
CC(/C=C/CC(C)CCCC(C)C)=C\C(=O)NCC(C)C (stereo not given)    6.19
C=CCOC(=O)/C=C(C)/C=C/CC(C)CCCC(C)(C)OC (stereo not given)    5.53
CCSC(=O)/C=C(C)/C=C/CC(C)CCCC(C)(C)OC(C)=O (stereo not given)    6.81
C#CCSC(=O)/C=C(C)/C=C/CC(C)CCCC(C)(C)OC (stereo not given)    5.9

[P] CCOC(=O)/C=C(C)/C=C/CC(C)CCCC(C)(C)OCC (stereo not given)
[Q] CCNC(=O)/C=C(C)/C=C/CC(C)CCCC(C)(C)OC (stereo not given)
Parameter metric = logP. Return the lower-valued option from P and Q . Your answer should be the label of the entry you select.
Q
